molecular target: COVID-19 (nCoV-2019, SARS-CoV2) Mpro (Severe acute respiratory syndrome coronavirus 2, UniProt P0DTD1); experiment: COVID-19 (nCoV-2019, SARS-CoV2) Mpro enzymatic assay; assay type: biochemical; details: 25 nM Mpro, 25 μM substrate; read-out: COVID-19 Mpro IC50
pIC50: −log10 of the molar value.
What pIC50 was measured for each of the following?

N#C[C@H]1C[C@H](C(=O)N(c2ccc(S(F)(F)(F)(F)F)cc2)C(C(=O)NC2CCC(F)(F)CC2)c2cncc(F)c2)N(C#N)C1 (single isomer, unassigned) [1100 Isomer 1]; > 5.70
CC(C)(C)c1ccc(N(C(=O)c2nsnc2C(N)=O)C(C(=O)NC2CCCCC2)c2cccnc2)cc1 (centres unmarked) [Compound 123a]; < 4.52
CC(C)(C)c1ccc(N(C(=O)C2CN(C#N)C2)C(C(=O)NC2CCCCC2)c2cccnc2)cc1 (centres unmarked); 4.52 to 5.00

Give me pIC50 for each of these molecules, listed below.
1. CN(C)C1CN(C(=O)C(c2cccnc2)N(C(=O)[C@H]2CCCN2C#N)c2ccc(C(C)(C)C)cc2)C1 (some centres unmarked)
2. CC(C)(C)c1ccc(N(C(=O)[C@H]2C[C@@H](Oc3ccccc3)CN2C#N)C(C(=O)NC2CCCCC2)c2cccnc2)cc1 (single isomer, unassigned) [307 Isomer 2]
3. CC1(C(=O)N(c2ccc(C(C)(C)C)cc2)C(C(=O)NC2CCCCC2)c2cccnc2)CNC1 (centres unmarked) [Compound 129a]
4. N#CN1C[C@@H](OCc2ccccc2)C[C@@H]1C(=O)N(c1ccc(S(F)(F)(F)(F)F)cc1)C(C(=O)NC1CCC(F)(F)CC1)c1cncc(F)c1 (single isomer, unassigned) [1280 Isomer 1]
5. CC(C)(C)O[C@@H]1C[C@H](C(=O)N(c2ccc(C(C)(C)C)cc2)C(C(=O)NC2CCCCC2)c2cccnc2)N(C#N)C1 (single isomer, unassigned) [Compound 299 Isomer 2]

Result:
1. 4.52 to 5.00
2. < 4.52
3. < 4.52
4. > 5.70
5. > 5.70
